target: c-Src SH2; experiment: SH2 binding enrichment of the phosphorylated peptide, bacterial display (enrichment ratio); higher = better substrate or ligand; peptides without Tyr show the background;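 note: peptide library displayed on the E. coli surface as eCPX fusions, selected cells deep-sequenced, score is each peptide's frequency after selection divided by its frequency in the input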
Class class 1: SH2 binding enrichment at least 1. Class class 0: SH2 binding enrichment below 1.

Worked examples follow.
residue_string="DFFDLYGGEKL [PTPN11_Y66_F71L_YF]" category_label="class 0"
residue_string="WKESWYSMRKM [FGB_Y475_G472E]" category_label="class 0"
residue_string="NMHSTYAKLAA [SEC22B_Y193]" category_label="class 1"

Exam item: decide whether the reported SH2 binding enrichment for IVGLLYRLLTE [SETX_Y1978] is at least 1. class 1

Confirm if SH2 binding enrichment reported for the sequence SSTAMYSAPGR [PSMB1_Y8] is 1 or above. class 1

In plain terms: is recorded SH2 binding enrichment at least 1 for ASELGYVFQAI [UROD_Y133] ? class 0

Dear colleague, could you confirm whether TQPSPYAVYLF [RPGRIP1_Y823_R827L] has SH2 binding enrichment at or above 1? class 1

Quick check, SH2 binding enrichment >= 1? FSCLPYRRLAF [SLC52A2_Y305_G306R_YF] class 0

Decide: is the reported value of SH2 binding enrichment for SFLSYYTSHVQ [NEFL_Y443_P440L] equal to or greater than 1? class 1

Is SH2 binding enrichment for PMDTYYDSTRG [DYNC2H1_Y2231] at or above 1? class 0

For this sequence, is measured SH2 binding enrichment 1 or higher? NFATLYLKIYH [PDE6B_Y219] class 0

Can RTLIRYAKLGN [BEST1_Y131_N133K] be said to have SH2 binding enrichment at or above 1? class 0

Has WHHTFYNEPRV [ACTA1_Y93_L96P] a recorded SH2 binding enrichment greater than or equal to 1? class 1

Is reported SH2 binding enrichment greater than or equal to 1 here: NDKLRYEVSSP [CDH13_Y66] class 0

In plain terms: is recorded SH2 binding enrichment at least 1 for GSIQQYIFKQE [PRG4_Y1271_YF] ? class 0

Determine whether measured SH2 binding enrichment meets or exceeds 1 for SKLTIYDGRPS [MTM1_Y277_A279G] class 0

For this sequence, is measured SH2 binding enrichment 1 or higher? LEIETYRRLLD [KRT12_Y429] class 0

Exam item: decide whether the reported SH2 binding enrichment for TNYPLYLRSLE [MTM1_Y71_R69P] is at least 1. class 0

----------
target: Jak2 (UniProt O60674); assay: phosphorylation enrichment, bacterial display (enrichment ratio); higher = better substrate or ligand; peptides without Tyr show the background
Sequence (O60674 whole entry, looked up): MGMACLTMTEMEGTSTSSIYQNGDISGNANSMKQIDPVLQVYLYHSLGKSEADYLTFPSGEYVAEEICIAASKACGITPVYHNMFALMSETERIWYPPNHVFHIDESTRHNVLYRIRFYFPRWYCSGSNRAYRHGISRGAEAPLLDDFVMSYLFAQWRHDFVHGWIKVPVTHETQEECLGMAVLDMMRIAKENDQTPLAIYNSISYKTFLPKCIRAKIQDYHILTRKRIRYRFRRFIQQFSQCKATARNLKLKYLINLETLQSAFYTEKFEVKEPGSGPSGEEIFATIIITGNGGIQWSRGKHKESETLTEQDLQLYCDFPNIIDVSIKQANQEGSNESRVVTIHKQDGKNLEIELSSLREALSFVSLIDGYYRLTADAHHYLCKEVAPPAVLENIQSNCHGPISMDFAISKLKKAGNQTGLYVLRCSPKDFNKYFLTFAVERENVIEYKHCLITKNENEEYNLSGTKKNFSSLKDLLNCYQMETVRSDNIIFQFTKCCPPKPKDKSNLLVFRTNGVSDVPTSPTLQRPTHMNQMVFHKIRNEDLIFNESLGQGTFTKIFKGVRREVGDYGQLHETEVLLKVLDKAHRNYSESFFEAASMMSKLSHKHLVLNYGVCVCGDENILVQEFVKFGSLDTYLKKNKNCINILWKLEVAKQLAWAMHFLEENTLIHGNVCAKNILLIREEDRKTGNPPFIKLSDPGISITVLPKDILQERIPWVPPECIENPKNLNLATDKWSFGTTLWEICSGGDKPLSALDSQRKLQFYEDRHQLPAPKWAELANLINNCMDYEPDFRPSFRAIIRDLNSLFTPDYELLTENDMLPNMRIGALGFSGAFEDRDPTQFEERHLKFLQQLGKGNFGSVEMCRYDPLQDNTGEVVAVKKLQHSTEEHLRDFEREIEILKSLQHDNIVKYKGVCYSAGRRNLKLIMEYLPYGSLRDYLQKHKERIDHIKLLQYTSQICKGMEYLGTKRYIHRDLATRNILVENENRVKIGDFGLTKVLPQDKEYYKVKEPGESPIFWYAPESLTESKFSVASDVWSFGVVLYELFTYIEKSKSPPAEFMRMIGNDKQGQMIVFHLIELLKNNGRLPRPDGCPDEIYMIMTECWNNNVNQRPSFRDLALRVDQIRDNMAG
Assay endpoint: phosphorylation enrichment

residue_string="EPFKVYRIVPE [IRF8_Y110_YF]" target_desc="Jak2 (UniProt O60674)" assay_endpoint="phosphorylation enrichment" result=0.526

Report phosphorylation enrichment for every entry below.
1. GADAIYDHINE [UQCR10_Y44]
2. KIDAKYKKKIK [WDR19_Y1230_E1235K]
3. RRSKMYLKTRS [LPL_Y329_S325R]
4. MNPPPYSQLLS [FGF23_Y154_F157L]
5. PQQLWYTHEKK [UBTF_Y207]

1. 0.777
2. 0.755
3. 0.889
4. 0.523
5. 0.802

Record phosphorylation enrichment for all entries; do not skip any.
1. TTKVSYRASQP [MKI67_Y1737]
2. SGEKPYKCSEC [ZNF543_Y283]
3. MASISYDFCRV [BST2_Y6_T4I_YF]
4. SIKDKYVTVLY [KCNH2_Y611_A614V]
5. YGSSSSGGAGG [RPA2_Y14_Y14S]
6. IYRAAYFGVYD [SLC25A4_Y191]
7. FKDGQYWIRGW [ACSF3_Y466_R471W]
8. VKPENYRRLDV [VHL_Y175_I180V]

0.475
0.765
1.03
0.696
0.392
0.982
0.927
0.463
